# Measurement target: αvβ6 (Homo sapiens (Human), UniProt P06756+P18564)
# Sequence (P06756 31-992): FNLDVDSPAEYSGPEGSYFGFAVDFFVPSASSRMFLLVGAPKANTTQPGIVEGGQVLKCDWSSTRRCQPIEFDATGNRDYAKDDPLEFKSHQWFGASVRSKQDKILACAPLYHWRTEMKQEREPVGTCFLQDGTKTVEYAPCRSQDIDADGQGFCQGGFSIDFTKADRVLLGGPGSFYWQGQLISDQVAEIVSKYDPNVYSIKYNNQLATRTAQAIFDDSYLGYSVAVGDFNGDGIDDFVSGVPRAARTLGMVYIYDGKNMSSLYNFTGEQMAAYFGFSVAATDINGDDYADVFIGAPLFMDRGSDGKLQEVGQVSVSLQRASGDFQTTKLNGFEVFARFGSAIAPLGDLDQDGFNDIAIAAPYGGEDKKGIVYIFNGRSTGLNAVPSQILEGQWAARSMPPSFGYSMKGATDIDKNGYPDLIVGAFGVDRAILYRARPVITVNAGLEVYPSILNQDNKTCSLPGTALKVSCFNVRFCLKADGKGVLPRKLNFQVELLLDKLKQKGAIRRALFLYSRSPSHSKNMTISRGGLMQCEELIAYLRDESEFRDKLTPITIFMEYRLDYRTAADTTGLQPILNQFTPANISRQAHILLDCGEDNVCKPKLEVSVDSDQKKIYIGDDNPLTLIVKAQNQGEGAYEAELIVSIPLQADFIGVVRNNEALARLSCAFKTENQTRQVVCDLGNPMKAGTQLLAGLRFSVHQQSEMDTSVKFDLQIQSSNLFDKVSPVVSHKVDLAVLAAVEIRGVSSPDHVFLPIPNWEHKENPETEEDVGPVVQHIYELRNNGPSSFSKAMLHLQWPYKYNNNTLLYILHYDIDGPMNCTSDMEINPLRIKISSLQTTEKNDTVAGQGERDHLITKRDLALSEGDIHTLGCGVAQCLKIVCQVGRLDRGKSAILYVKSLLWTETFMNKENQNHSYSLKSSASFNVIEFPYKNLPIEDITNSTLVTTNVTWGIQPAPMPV
# Sequence (P18564 22-707): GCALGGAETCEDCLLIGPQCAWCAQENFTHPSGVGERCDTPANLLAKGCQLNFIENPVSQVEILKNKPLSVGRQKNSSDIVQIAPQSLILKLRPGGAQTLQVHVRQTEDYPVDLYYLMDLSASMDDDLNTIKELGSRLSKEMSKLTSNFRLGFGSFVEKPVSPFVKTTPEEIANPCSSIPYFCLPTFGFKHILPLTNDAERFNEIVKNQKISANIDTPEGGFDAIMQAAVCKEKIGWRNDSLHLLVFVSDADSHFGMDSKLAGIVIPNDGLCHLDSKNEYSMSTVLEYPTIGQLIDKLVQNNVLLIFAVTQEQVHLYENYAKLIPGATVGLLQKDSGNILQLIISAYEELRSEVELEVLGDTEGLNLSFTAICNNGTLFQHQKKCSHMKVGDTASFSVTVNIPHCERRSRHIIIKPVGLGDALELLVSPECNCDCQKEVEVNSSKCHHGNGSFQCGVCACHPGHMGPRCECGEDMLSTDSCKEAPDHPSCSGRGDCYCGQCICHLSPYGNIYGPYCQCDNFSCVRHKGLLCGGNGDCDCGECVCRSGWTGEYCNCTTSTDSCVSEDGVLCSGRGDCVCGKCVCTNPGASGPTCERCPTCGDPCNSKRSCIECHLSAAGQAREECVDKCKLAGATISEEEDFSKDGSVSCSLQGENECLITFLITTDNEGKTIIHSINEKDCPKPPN
# Assay procedure: αVβ6–LAP-TGF β1 integrin binding assay (integrin-coupled beads, flow cytometry)
# Setup conditions: ligand LAP TGF-β1
# note: exactly 10 nM is not below, so it is F; use T for IC50 strictly under it

compound="O=C(O)C[C@@H](c1cccc(C(F)(F)F)c1)N1CCN(CCCc2ccc3c(n2)NCCC3)C1=O [Compound A15s]" measurement_target="αvβ6 (Homo sapiens (Human), UniProt P06756+P18564)" cat=T
compound="O=C(O)CC(CCCCCCc1ccc2c(n1)NCCC2)c1ccc(Cl)c(C(F)(F)F)c1 (stereo not drawn)" measurement_target="αvβ6 (Homo sapiens (Human), UniProt P06756+P18564)" cat=F
compound="O=C(O)CC(CCCCCCc1ccc2c(n1)NCCC2)c1cnc2ccc(F)cc2c1 (stereo not drawn)" measurement_target="αvβ6 (Homo sapiens (Human), UniProt P06756+P18564)" cat=T
compound="O=C(O)CC(CCCCCCc1ccc2c(n1)NCCC2)c1cc(C(F)(F)F)ccc1F (stereo not drawn)" measurement_target="αvβ6 (Homo sapiens (Human), UniProt P06756+P18564)" cat=F
compound="O=C(O)CC(CCCCCCc1ccc2c(n1)NCCC2)c1cnc2cc(C(F)(F)F)ccc2c1 (stereo not drawn)" measurement_target="αvβ6 (Homo sapiens (Human), UniProt P06756+P18564)" cat=F
compound="O=C(O)CC(CCCCCCc1ccc2c(n1)NCCC2)c1cnc2cc(F)c(F)cc2c1 (stereo not drawn)" measurement_target="αvβ6 (Homo sapiens (Human), UniProt P06756+P18564)" cat=T
compound=O=C(O)C[C@@H](c1ccc(OC(F)F)nc1)N1CCN(CCCc2ccc3c(n2)NCCC3)C1=O measurement_target="αvβ6 (Homo sapiens (Human), UniProt P06756+P18564)" cat=T
compound="O=C(O)CC(CCCCCCc1ccc2c(n1)NCCC2)c1cc(Cl)cc(C(F)(F)F)c1 (stereo not drawn)" measurement_target="αvβ6 (Homo sapiens (Human), UniProt P06756+P18564)" cat=F
compound="O=C(O)CC(CCCCCCc1ccc2c(n1)NCCC2)c1cccc(C(F)(F)F)c1 (single isomer, unassigned) [Compound A21-2]" measurement_target="αvβ6 (Homo sapiens (Human), UniProt P06756+P18564)" cat=T

----------
Recorded IC50 for the following compounds
# Measurement target: αvβ8 (Homo sapiens (Human), UniProt P06756+P26012)
# Sequence (P06756 31-992): as the sequence (P06756 31-992) above
# Sequence (P26012 43-684): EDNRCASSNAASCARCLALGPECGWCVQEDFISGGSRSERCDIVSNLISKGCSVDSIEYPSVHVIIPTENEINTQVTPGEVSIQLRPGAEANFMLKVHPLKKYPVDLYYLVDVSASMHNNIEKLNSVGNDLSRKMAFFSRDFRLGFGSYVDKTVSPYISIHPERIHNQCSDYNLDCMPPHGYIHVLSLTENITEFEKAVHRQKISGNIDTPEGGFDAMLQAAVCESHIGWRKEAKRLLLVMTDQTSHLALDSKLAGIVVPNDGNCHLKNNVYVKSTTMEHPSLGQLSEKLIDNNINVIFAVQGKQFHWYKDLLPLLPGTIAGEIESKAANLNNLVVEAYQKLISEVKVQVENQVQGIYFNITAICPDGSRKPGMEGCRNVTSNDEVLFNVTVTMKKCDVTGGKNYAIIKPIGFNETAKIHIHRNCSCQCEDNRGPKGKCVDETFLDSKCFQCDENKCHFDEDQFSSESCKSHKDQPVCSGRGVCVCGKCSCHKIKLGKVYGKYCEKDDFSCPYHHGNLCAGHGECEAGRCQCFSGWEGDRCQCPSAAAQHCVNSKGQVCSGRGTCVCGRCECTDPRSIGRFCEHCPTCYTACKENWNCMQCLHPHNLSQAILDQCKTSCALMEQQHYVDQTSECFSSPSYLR
# Assay procedure: αVβ8–LAP-TGF β1 integrin binding assay (integrin-coupled beads, flow cytometry)
# Setup conditions: ligand LAP TGF-β1
Metric: IC50 (nM)

compound=O=C(O)C[C@@H](c1ccc(OC(F)F)nc1)N1CCN(CCCc2ccc3c(n2)NCCC3)C1=O reported_measurement=13.2
compound="O=C(O)CC(CCCCCCc1ccc2c(n1)NCCC2)c1cccc(C(F)(F)F)c1 (stereo not shown) [Compound A21]" reported_measurement=88.2
compound="O=C(O)CC(CCCCCCc1ccc2c(n1)NCCC2)c1cnc(C(F)(F)F)nc1 (stereo not shown)" reported_measurement=78.1
compound="O=C(O)C[C@@H](c1cccc(C(F)(F)F)c1)N1CCN(CCCc2ccc3c(n2)NCCC3)C1=O [Compound A15s]" reported_measurement=5.92
compound="O=C(O)CC(CCCCCCc1ccc2c(n1)NCCC2)c1cnc2cc(F)ccc2c1 (stereo not shown)" reported_measurement=63.9
compound="O=C(O)CC(CCCCCCc1ccc2c(n1)NCCC2)c1ccc(Cl)c(C(F)(F)F)c1 (stereo not shown)" reported_measurement=151
compound="O=C(O)CC(CCCCCCc1ccc2c(n1)NCCC2)c1cnc2cc(C(F)(F)F)ccc2c1 (stereo not shown)" reported_measurement=80.6
compound="O=C(O)CC(CCCCCCc1ccc2c(n1)NCCC2)c1cc(Cl)cc(C(F)(F)F)c1 (stereo not shown)" reported_measurement=35.4
compound="O=C(O)CC(CCCCCCc1ccc2c(n1)NCCC2)c1cc(C(F)(F)F)ccc1F (stereo not shown)" reported_measurement=34.4
compound="O=C(O)CC(CCCCCCc1ccc2c(n1)NCCC2)c1ccc(OC(F)F)nc1 (stereo not shown)" reported_measurement=79.3
compound="O=C(O)CC(CCCCCCc1ccc2c(n1)NCCC2)c1cccc(C(F)(F)F)c1 (single isomer, unassigned) [Compound A21-2]" reported_measurement=50.3
compound="O=C(O)CC(CCCCCCc1ccc2c(n1)NCCC2)c1cnc2ccc(F)cc2c1 (stereo not shown)" reported_measurement=21.4
compound="O=C(O)CC(CCCCCCc1ccc2c(n1)NCCC2)c1cnc2cc(F)c(F)cc2c1 (stereo not shown)" reported_measurement=24

Origin of the recorded values: patent US11685738B2
